# system: HLA-B*83:01
# protocol: IEDB peptide-MHC binding, purified MHC/competitive/fluorescence; filed as Kd, often an IC50 or EC50 that approximates it; bounds were set here for any values at or beyond the usual limits of such assays
# assay.context: source organism: Homo sapiens
pKd: −log10 of the molar value.
metric.name: pKd

INSERT INTO results (seq_string, metric_name, recorded_result) VALUES
  ('RLPKDFVDL', 'pKd', '≤ 5.30');

----------
# system: HLA-A*11:01
# protocol: IEDB peptide-MHC binding, purified MHC/direct/fluorescence; filed as Kd, often an IC50 or EC50 that approximates it; bounds were set here for any values at or beyond the usual limits of such assays
# assay.context: source organism: Influenza A virus (A/equine/New York/1/1999(H3N8))
metric.name: Kd

INSERT INTO measurements (seq_string, metric_name, recorded_result) VALUES
  ('VAGGTSSVY', 'Kd', '≥ 20 µM');

----------
# system: HLA-C*04:01
# protocol: IEDB peptide-MHC binding, purified MHC/competitive/fluorescence; filed as Kd, often an IC50 or EC50 that approximates it; bounds were set here for any values at or beyond the usual limits of such assays
# assay.context: source organism: Acetivibrio thermocellus ATCC 27405
metric.name: Kd

INSERT INTO results (seq_string, recorded_result) VALUES
  ('TVIDVNTGK', '≥ 5 µM');

----------
# system: HLA-A*24:03
# protocol: IEDB peptide-MHC binding, purified MHC/competitive/fluorescence; filed as Kd, often an IC50 or EC50 that approximates it; bounds were set here for any values at or beyond the usual limits of such assays
# assay.context: source organism: Giardia intestinalis ATCC 50581
metric.name: Kd

INSERT INTO results (seq_string, recorded_result) VALUES
  ('GLYLYRFHV', '≥ 20 µM');

----------
# system: HLA-A*23:01
# protocol: IEDB peptide-MHC binding, purified MHC/direct/fluorescence; filed as Kd, often an IC50 or EC50 that approximates it; bounds were set here for any values at or beyond the usual limits of such assays
# assay.context: source organism: Giardia lamblia ATCC 50803
metric.name: Kd

INSERT INTO results (seq_string, recorded_result) VALUES
  ('RIYDPLWFQ', '≥ 20 µM');

----------
# system: HLA-A*29:02
# protocol: IEDB peptide-MHC binding, purified MHC/competitive/radioactivity; filed as Kd, often an IC50 or EC50 that approximates it; bounds were set here for any values at or beyond the usual limits of such assays
# assay.context: source organism: SARS coronavirus Tor2
pKd: −log10 of the molar value.
Quick rule for you: pKd at 6 or higher means 1 (yes), lower means 0 (no).

INSERT INTO assay_data (seq_string, system, category) VALUES
  ('AYMLFTKFFY', 'HLA-A*29:02', '1 (yes)'),
  ('TMADLVYAL', 'HLA-A*29:02', '0 (no)'),
  ('FMMSRRRLL', 'HLA-A*29:02', '0 (no)'),
  ('LYYPSARIVY', 'HLA-A*29:02', '1 (yes)'),
  ('AYATAQEAY', 'HLA-A*29:02', '1 (yes)'),
  ('SYEHQTPFEI', 'HLA-A*29:02', '0 (no)'),
  ('TCDWTNAGDY', 'HLA-A*29:02', '0 (no)'),
  ('TQDLFLPFY', 'HLA-A*29:02', '1 (yes)'),
  ('CKSKNPLLY', 'HLA-A*29:02', '1 (yes)'),
  ('NYMPYVFTL', 'HLA-A*29:02', '1 (yes)'),
  ('MYLKLRSETL', 'HLA-A*29:02', '0 (no)');
